Measured IC50, listed per entry for reference.
target: OXA-58 (Acinetobacter baumannii, UniProt Q2TR58)
Sequence (Q2TR58 19-280): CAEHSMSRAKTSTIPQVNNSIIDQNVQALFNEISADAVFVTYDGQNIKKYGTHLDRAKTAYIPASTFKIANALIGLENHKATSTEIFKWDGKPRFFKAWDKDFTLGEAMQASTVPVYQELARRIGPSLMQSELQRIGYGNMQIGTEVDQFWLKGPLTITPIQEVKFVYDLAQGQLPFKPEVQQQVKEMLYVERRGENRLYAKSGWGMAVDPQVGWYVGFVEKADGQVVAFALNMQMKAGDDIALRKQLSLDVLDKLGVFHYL
readout: IC50

>>> reported_measurement("NCCN[C@H]1CC[C@H](CC(=O)N[C@H]2Cc3cccc(C(=O)O)c3OB2O)CC1 [Tan, taniborbactam]")
"> 10 µM"
>>> reported_measurement("O=C(O)C[C@@H]1CC[C@H](NC(=O)Cc2cccs2)B(O)O1 [Vab, vaborbactam]")
"> 10 µM"
>>> reported_measurement("NCCONC(=O)[C@@H]1CC[C@@H]2CN1C(=O)N2OS(=O)(=O)O [Nac, nacubactam]")
"> 10 µM"
>>> reported_measurement("CC1=C[C@@H]2CN(C(=O)N2OS(=O)(=O)O)[C@@H]1C(N)=O [Dur, durlobactam]")
"0.011 µM"

###

test system: A. baumannii clinical isolates; assay: Broth microdilution MIC, A. baumannii clinical isolates; type: cell-based, Acinetobacter baumannii; settings: 2018 Global collection, All A. baumannii, N 500
readout: Number of isolates inhibited at MIC of 4 µg/mL

>>> reported_measurement("CN(C)[C@@H]1C(O)=C(C(N)=O)C(=O)[C@@]2(O)C(O)=C3C(=O)c4c(O)c(NC(=O)CN5CCCC5)cc(F)c4C[C@H]3C[C@@H]12")
3
>>> reported_measurement("CC(C)(O/N=C(\\C(=O)N[C@@H]1C(=O)N2C(C(=O)[O-])=C(C[N+]3(CCNC(=O)c4ccc(O)c(O)c4Cl)CCCC3)CS[C@H]12)c1csc(N)n1)C(=O)O")
24
>>> reported_measurement("C[C@@H](O)[C@H]1C(=O)N2C(C(=O)O)=C(S[C@@H]3CN[C@H](C(=O)N(C)C)C3)[C@H](C)[C@H]12")
6
>>> reported_measurement("NCC[C@H](O)C(=O)N[C@@H]1C[C@H](N)[C@@H](O[C@H]2O[C@H](CN)[C@@H](O)[C@H](O)[C@H]2O)[C@H](O)[C@H]1O[C@H]1O[C@H](CO)[C@@H](O)[C@H](N)[C@H]1O")
33
>>> reported_measurement("CN(C)c1cc(NC(=O)CNC(C)(C)C)c(O)c2c1C[C@H]1C[C@H]3[C@H](N(C)C)C(O)=C(C(N)=O)C(=O)[C@@]3(O)C(O)=C1C2=O")
140

###

Measured IC50, listed per entry for reference.
target: OXA-24/40 (Acinetobacter baumannii, UniProt Q8RLA6); experiment: In vitro SBL inhibition assay (nitrocefin hydrolysis), IC50; details: 10 min preincubation, 30°C, read-out: Enzyme IC50
Sequence (Q8RLA6 22-275): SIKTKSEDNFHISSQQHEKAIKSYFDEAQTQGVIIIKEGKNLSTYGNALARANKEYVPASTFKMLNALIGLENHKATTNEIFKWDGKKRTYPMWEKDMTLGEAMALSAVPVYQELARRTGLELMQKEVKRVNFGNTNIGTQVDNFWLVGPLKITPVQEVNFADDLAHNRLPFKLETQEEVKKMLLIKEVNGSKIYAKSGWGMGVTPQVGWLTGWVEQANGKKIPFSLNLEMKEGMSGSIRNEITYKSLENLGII
readout: IC50

>>> reported_measurement("NCCONC(=O)[C@@H]1CC[C@@H]2CN1C(=O)N2OS(=O)(=O)O")
"> 10 µM"
>>> reported_measurement("CC1=C[C@@H]2CN(C(=O)N2OS(=O)(=O)O)[C@@H]1C(N)=O")
"0.208 µM"
>>> reported_measurement("NCCN[C@H]1CC[C@H](CC(=O)N[C@H]2Cc3cccc(C(=O)O)c3OB2O)CC1")
"> 10 µM"
>>> reported_measurement("O=C(NC1CCNCC1)[C@@H]1CC[C@@H]2CN1C(=O)N2OS(=O)(=O)O (relative stereo)")
"> 10 µM"
>>> reported_measurement("O=C(NNC(=O)[C@@H]1CC[C@@H]2CN1C(=O)N2OS(=O)(=O)O)[C@@H]1CCCNC1")
"> 10 µM"
>>> reported_measurement("O=C1N2C[C@@H](CC[C@H]2F)N1OS(=O)(=O)O")
"0.602 µM"
